This collection of values is drawn from PubChem BioAssay AID2060490.

# pIC50 per entry
system: 885512-296-R-J2-PDC complex spheroid viability; experiment: Anticancer human tumor 885512-296-R-J2-PDC patient-derived breast carcinoma cell line growth inhibition [GQUAD]; conditions: curve of first compound; second compound 10 µM
pIC50: −log10 of the molar value.

query: Entry under review: CC1COCCN1c1cc(C2(O)CC3CCC(C2)O3)c2cnn(-c3ccn[nH]3)c2n1 (stereo not given) + CN(C)c1ccc(Nc2c3ccc(NC(=O)CCN4CCCC4)cc3nc3cc(NC(=O)CCN4CCCC4)ccc23)cc1 . Reported pIC50?
result: > 7.50

* * *

tested on: 885512-296-R-J2-PDC complex spheroid viability; experiment: Anticancer human tumor 885512-296-R-J2-PDC cell line growth inhibition [GQUAD]; details: second compound 0.0316 µM; first compound 3.16 µM; active = viability on the fitted dose curve at most 10% of control; inactive = the rest;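 also: spheroids exposed to the compounds for one week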
Allowed answers: active, inactive

CC(=O)O[C@H]1C(=O)[C@@]2(C)[C@H]([C@H](OC(=O)c3ccccc3)[C@]3(O)C[C@H](OC(=O)[C@H](O)[C@@H](NC(=O)c4ccccc4)c4ccccc4)C(C)=C1C3(C)C)[C@]1(OC(C)=O)CO[C@@H]1C[C@@H]2O + Cc1[nH]c2ccc(F)cc2c1-c1nc2c3cccnc3c3ncccc3c2[nH]1    active

query: Given COc1cccc2c1C(=O)c1c(O)c3c(c(O)c1C2=O)CC(O)(C(=O)CO)CC3OC1CC(N)C(O)C(C)O1 (stereo not given) + CN(C)c1ccc(Nc2c3ccc(NC(=O)CCN4CCCC4)cc3nc3cc(NC(=O)CCN4CCCC4)ccc23)cc1 , state the outcome it received in this test.
result: active

query: Entry to check: CC(C)(O)C1CCC(Nc2ccc3ncc(-c4cccc(C(F)(F)F)c4)n3n2)CC1 (stereo not given) + Cc1[nH]c2ccc(F)cc2c1-c1nc2c3cccnc3c3ncccc3c2[nH]1
result: inactive

query: Also C=CCn1c(=O)c2cnc(Nc3ccc(N4CCN(C)CC4)cc3)nc2n1-c1cccc(C(C)(C)O)n1 + CN(C)c1ccc(Nc2c3ccc(NC(=O)CCN4CCCC4)cc3nc3cc(NC(=O)CCN4CCCC4)ccc23)cc1 , if possible.
result: active

query: And then CC(C)(O)C1CCC(Nc2ccc3ncc(-c4cccc(C(F)(F)F)c4)n3n2)CC1 (stereo not given) + CN(C)c1ccc(Nc2c3ccc(NC(=O)CCN4CCCC4)cc3nc3cc(NC(=O)CCN4CCCC4)ccc23)cc1 , what is it?
result: inactive

* * *

system: 885512-296-R-J2-PDC complex spheroid viability; assay: Anticancer human tumor 885512-296-R-J2-PDC cell line growth inhibition [GQUAD]; settings: second compound 1 µM; first compound 0.00999 µM; stronger effect = lower value;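 also: spheroids exposed to the compounds for one week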;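 as to viability, T/C: percent of tumor spheroid viability relative to DMSO vehicle control wells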
Categorize each record by its viability, T/C using Low (below 20%), Mid (20% to below 70%), High (70% or more)

Solved entries:
Cc1[nH]c2ccccc2c1CCNCc1ccc(/C=C/C(=O)NO)cc1 + Cc1cnc(CNC(=O)c2c(=O)c3ccc(N4CCCN(C)CC4)nc3n3c2sc2ccccc23)cn1    Low
Cc1[nH]c2ccccc2c1CCNCc1ccc(/C=C/C(=O)NO)cc1 + Cc1[nH]c2ccc(F)cc2c1-c1nc2c3cccnc3c3ncccc3c2[nH]1    Mid
CCc1c2c(nc3ccc(O)cc13)-c1cc3c(c(=O)n1C2)COC(=O)[C@]3(O)CC + Cc1cnc(CNC(=O)c2c(=O)c3ccc(N4CCCN(C)CC4)nc3n3c2sc2ccccc23)cn1    Low
Cc1[nH]c2ccccc2c1CCNCc1ccc(/C=C/C(=O)NO)cc1 + CN(C)c1ccc(Nc2c3ccc(NC(=O)CCN4CCCC4)cc3nc3cc(NC(=O)CCN4CCCC4)ccc23)cc1    Mid
CC[C@@]1(O)C(=O)OCc2c1cc1n(c2=O)Cc2cc3c(CN(C)C)c(O)ccc3nc2-1 + CN(C)c1ccc(Nc2c3ccc(NC(=O)CCN4CCCC4)cc3nc3cc(NC(=O)CCN4CCCC4)ccc23)cc1    High
Cn1ncnc1[C@H]1c2n[nH]c(=O)c3cc(F)cc(c23)N[C@@H]1c1ccc(F)cc1 + Cc1[nH]c2ccc(F)cc2c1-c1nc2c3cccnc3c3ncccc3c2[nH]1    Mid

query: Where would CCc1c2c(nc3ccc(O)cc13)-c1cc3c(c(=O)n1C2)COC(=O)[C@]3(O)CC + Cc1[nH]c2ccc(F)cc2c1-c1nc2c3cccnc3c3ncccc3c2[nH]1 land among the classes by reported viability, T/C?
result: Low

query: Record: Cn1ncnc1[C@H]1c2n[nH]c(=O)c3cc(F)cc(c23)N[C@@H]1c1ccc(F)cc1 + CN(C)c1ccc(Nc2c3ccc(NC(=O)CCN4CCCC4)cc3nc3cc(NC(=O)CCN4CCCC4)ccc23)cc1
result: High

query: Next record, please: CC[C@@]1(O)C(=O)OCc2c1cc1n(c2=O)Cc2cc3c(CN(C)C)c(O)ccc3nc2-1 + Cc1cnc(CNC(=O)c2c(=O)c3ccc(N4CCCN(C)CC4)nc3n3c2sc2ccccc23)cn1
result: Low

query: Let us now turn to CCc1c2c(nc3ccc(O)cc13)-c1cc3c(c(=O)n1C2)COC(=O)[C@]3(O)CC + CN(C)c1ccc(Nc2c3ccc(NC(=O)CCN4CCCC4)cc3nc3cc(NC(=O)CCN4CCCC4)ccc23)cc1
result: Low

query: Note, next up: Cn1ncnc1[C@H]1c2n[nH]c(=O)c3cc(F)cc(c23)N[C@@H]1c1ccc(F)cc1 + Cc1cnc(CNC(=O)c2c(=O)c3ccc(N4CCCN(C)CC4)nc3n3c2sc2ccccc23)cn1
result: Mid
